Please respond with reported Emax for every item in the list.
Target: 5-HT2A receptor (Homo sapiens, UniProt P28223)
Sequence (P28223 whole entry): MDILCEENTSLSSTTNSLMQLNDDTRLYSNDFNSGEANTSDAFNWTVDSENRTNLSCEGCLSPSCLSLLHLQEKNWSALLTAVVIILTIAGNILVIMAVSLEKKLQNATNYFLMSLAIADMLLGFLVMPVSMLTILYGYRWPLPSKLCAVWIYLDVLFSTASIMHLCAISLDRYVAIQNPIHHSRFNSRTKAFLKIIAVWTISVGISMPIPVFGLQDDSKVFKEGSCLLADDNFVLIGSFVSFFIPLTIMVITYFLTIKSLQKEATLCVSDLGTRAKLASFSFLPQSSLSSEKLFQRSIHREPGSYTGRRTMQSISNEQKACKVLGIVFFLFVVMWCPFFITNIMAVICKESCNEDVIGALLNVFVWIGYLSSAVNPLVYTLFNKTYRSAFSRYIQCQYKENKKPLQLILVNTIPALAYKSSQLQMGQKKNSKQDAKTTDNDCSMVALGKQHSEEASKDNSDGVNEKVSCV
Assay: Functional activity, FLIPR calcium assay in CHO cells expressing human 5-HT2A
Assay type: cell-based
Set-up: expressed in transfected cells; host or cells: CHO cells
Conditions: CHO, read-out: h5-HT2A Relative Efficacy (%)
Structures can show the parent of a compound that is named as a salt.
Provide only the numeric value, understood in %.

Which Emax is listed for C[C@@H](N)CN1CCc2cccc(Br)c21 [Example 19] ?
21

Which Emax is listed for NCCN1CCc2ccc([N+](=O)[O-])cc21 [Example 53, Fumarate] ?
20

Which Emax is listed for C[C@H](N)CN1CCc2ccc(F)cc21 [Example 9] ?
52

Which Emax is listed for CSc1cc2c(cc1F)CCN2CC(C)N (centres unmarked) [Example 30] ?
88

Which Emax is listed for CCSc1cc2c(cc1F)CCN2C[C@H](C)N [Example 31] ?
72

Which Emax is listed for C[C@H](N)CN1CCc2cc(F)ccc21 [Example 29] ?
18

Which Emax is listed for C[C@H](N)CN1CCc2ccc(Cl)cc21 [Example 10, Fumarate] ?
49

Which Emax is listed for C[C@H](N)CN1CCc2cc(Br)ccc21 [Example 33] ?
51

Which Emax is listed for C[C@H](N)CN1CCc2cccc(Br)c21 [Example 20] ?
17

Which Emax is listed for C[C@H](N)CN1CCc2ccc(C(F)(F)F)cc21 [Example 24] ?
33

Which Emax is listed for COc1ccc2c(c1)N(CC(C)N)CC2 (racemic) [Example 2, Hydrochloride] ?
63
